Entry source: patent US9403846B2

- target-under-test: BACE1 enzyme (Homo sapiens (Human), UniProt P56817)
- Sequence (P56817 46-457): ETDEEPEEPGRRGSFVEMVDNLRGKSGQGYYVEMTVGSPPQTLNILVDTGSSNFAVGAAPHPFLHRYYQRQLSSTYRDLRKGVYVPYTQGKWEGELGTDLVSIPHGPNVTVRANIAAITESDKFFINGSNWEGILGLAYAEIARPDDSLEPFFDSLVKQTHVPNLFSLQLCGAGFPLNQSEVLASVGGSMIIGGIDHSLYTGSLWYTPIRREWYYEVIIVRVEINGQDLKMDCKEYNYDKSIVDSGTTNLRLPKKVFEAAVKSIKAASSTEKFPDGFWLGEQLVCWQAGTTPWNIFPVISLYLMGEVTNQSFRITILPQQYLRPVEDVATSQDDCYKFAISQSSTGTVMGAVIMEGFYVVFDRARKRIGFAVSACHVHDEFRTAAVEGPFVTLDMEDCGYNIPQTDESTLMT
- experimental-protocol: BACE1 Cell-Free Assay (fluorescence polarization);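 also: Affinity-purified soluble BACE1 from transfected CHO-K1 cells cleaving a biotinylated, Oregon Green-labelled synthetic APP peptide, 3 h at 37 °C, cleavage followed by fluorescence polarization change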
- Type: biochemical
- measurement-setup: statement used to assign absolute stereochemistry; refers to Table 3
test-readout: biological activity (in words, see Table 3)

NC1=N[C@]2(c3ccc(F)cc3F)CO[C@H](C3CC3)C[C@@H]2CS1 : essentially inactive
NC1=N[C@]2(c3ccc(F)cc3F)CO[C@H](CC3CC3)C[C@@H]2CS1 : essentially inactive
CC1([C@@H]2C[C@@H]3CSC(N)=N[C@]3(c3ccc(F)cc3F)CO2)CC1 : essentially inactive

###

- target-under-test: UniProt:Q9Y5Z0
- Sequence (Q9Y5Z0 63-518): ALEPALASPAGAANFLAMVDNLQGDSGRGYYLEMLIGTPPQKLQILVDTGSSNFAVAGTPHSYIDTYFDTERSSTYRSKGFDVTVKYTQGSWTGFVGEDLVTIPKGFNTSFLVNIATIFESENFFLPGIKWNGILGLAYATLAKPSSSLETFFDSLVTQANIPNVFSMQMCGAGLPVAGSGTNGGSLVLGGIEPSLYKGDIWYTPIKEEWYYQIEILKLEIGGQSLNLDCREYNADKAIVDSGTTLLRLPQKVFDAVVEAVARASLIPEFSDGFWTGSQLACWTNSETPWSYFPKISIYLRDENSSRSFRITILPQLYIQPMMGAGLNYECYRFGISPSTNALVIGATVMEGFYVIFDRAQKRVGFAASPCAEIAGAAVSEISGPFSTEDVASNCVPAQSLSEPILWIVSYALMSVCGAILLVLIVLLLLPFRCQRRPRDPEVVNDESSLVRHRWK
Counter-ions that a name gives are not always drawn.
test-readout: IC50 (nM)
Give a bare numeral; the unit nM is implied.

Recorded results for 2 molecules are shown here.
NC1=N[C@@]2(c3ccc(F)cc3F)CO[C@@H](C3CC3)C[C@H]2CS1 : 2260
C[C@H]1SC(N)=N[C@@]2(c3ccc(F)cc3F)CO[C@@H](C3CC3)C[C@@H]12 [Example 3, trifluoroacetate salt] : 2490

Shift focus to the following entry.
Enter reported IC50 observed with UniProt:Q9Y5Z0 for NC1=N[C@@]2(c3ccc(F)cc3F)CO[C@@H](C3CCCO3)C[C@H]2CS1 (stereo partly drawn) [Example 1, trifluoroacetate salt]
1290

###

- target-under-test: BACE1 enzyme (Homo sapiens (Human))
- experimental-protocol: BACE1 Cell-Free Assay (fluorescence polarization)
- Type: biochemical
- measurement-setup: geometric mean of 2-3 determinations (Ex. 2: ≧6 determinations)
Structures can show the parent of a compound that is named as a salt.
Binary label based on IC50 with cut-off 1000 nM: below gives yes (1), not below gives no (0).

NC1=N[C@@]2(c3ccc(F)cc3F)CO[C@@H](C3CCO3)C[C@H]2CS1 (stereo partly shown) : no (0)
NC1=N[C@@]2(c3c(F)cc(F)cc3F)CO[C@@H](C3CC3)C[C@H]2CS1 : no (0)
Cc1ccc([C@]23CO[C@@H](C4CC4)C[C@H]2CSC(N)=N3)cc1F : yes (1)
C[C@H]1SC(N)=N[C@@]2(c3ccc(F)cc3F)CO[C@@H](C3CC3)C[C@@H]12 [Example 3, trifluoroacetate salt] : yes (1)
NC1=N[C@@]2(c3ccccc3)CO[C@@H](C3CC3)C[C@H]2CS1 : no (0)

Given the entry COC[C@H]1SC(N)=N[C@@]2(c3ccc(F)cc3F)CO[C@@H](C3CC3)C[C@@H]12 (racemic) [Example 5, hydrochloride salt] , would its reported IC50 be below 1000 nM?
no (0)

Identify whether the compound NC1=N[C@@]2(c3ccc(F)cc3F)CO[C@@H](C3CCCO3)C[C@H]2CS1 (stereo partly shown) [Example 1, trifluoroacetate salt] records IC50 below 1000 nM.
yes (1)

is_below(IC50, 1000 nM) for Cc1ccc([C@]23CO[C@@H](C4CC4)C[C@H]2CSC(N)=N3)c(F)c1 ?
yes (1)

Lab note: IC50 threshold 1000 nM. Does this compound come in strictly under it? NC1=N[C@@]2(c3cc(F)ccc3F)CO[C@@H](C3CC3)C[C@H]2CS1
no (0)

Is it true that IC50 reported for CC1([C@@H]2C[C@@H]3CSC(N)=N[C@]3(c3ccc(F)cc3F)CO2)CC1 is less than 1000 nM?
no (0)

Regarding NC1=N[C@]2(c3ccc(F)cc3)CO[C@H](C3CC3)C[C@@H]2CS1 , kindly confirm whether its IC50 is beneath 1000 nM.
no (0)

Is IC50 strictly under 1000 nM for the entry NC1=N[C@]2(c3ccccc3F)CO[C@H](C3CC3)C[C@@H]2CS1 ?
no (0)

Does the reported IC50 of C[C@@H]1C[C@H]1[C@H]1C[C@H]2CSC(N)=N[C@@]2(c2ccc(F)cc2F)CO1 stay below 1000 nM?
yes (1)

###

- target-under-test: UniProtKB P56817
Counter-ions that a name gives are not always drawn.
test-readout: pIC50
When answering, recall that pIC50 equals minus log10 of the concentration in mol/L, and write that number alone.

NC1=N[C@@]2(c3ccc(F)cc3F)CO[C@@H](CC3CC3)C[C@H]2CS1 : 6.63

Need pIC50, item NC1=N[C@@]2(c3ccc(F)cc3F)CO[C@@H](C3CC3)C[C@H]2[C@@H](CF)S1 [Example 6, hydrochloride salt]
6.46
